Hello, the source for this data is paper PMC4347663, in case you need it.

- test description: IV and oral DMPK cassette dose experiment
- Assay type: in vivo, C57Bl/6 mice
- test parameters: male, C57Bl/6, mouse, plasma, iv, 1 mg/kg
recorded endpoint: AUC(0-t) (ng·h/mL)

As a guide, the following entries are already answered.
compound: N#Cc1ccc(CN(Cc2ccc(Cl)cc2)Cc2cccnc2)s1
AUC(0-t), ng·h/mL: 361

compound: O=[N+]([O-])c1ccc(CN(Cc2ccc(F)cc2)Cc2cccnc2)s1
AUC(0-t), ng·h/mL: 354

compound: CCOC(=O)N1CCC(CN(Cc2ccc(Cl)cc2)Cc2ccc([N+](=O)[O-])s2)C1 (centres unmarked) [Compound 3, reference compound]
AUC(0-t), ng·h/mL: 365

[1] N#Cc1ccc(CN(Cc2cccnc2)Cc2ccc(F)c(F)c2)s1
[2] Cc1cc(Cl)ccc1CN(Cc1ccc(Cl)cc1)Cc1ccc([N+](=O)[O-])s1
Could you determine which record has the numerically smaller AUC(0-t)? Candidates: 1 and 2 Lab log: write the label of the selected item as the result. 1
(1: 375 ng·h/mL, 2: 2540 ng·h/mL)
